# targetUnderTest: Mouse ACVR2A (mouse, UniProt P27038 20-135, limits assumed); further: test concentration or dose not given here
# Sequence (P27038 20-135 limits assumed): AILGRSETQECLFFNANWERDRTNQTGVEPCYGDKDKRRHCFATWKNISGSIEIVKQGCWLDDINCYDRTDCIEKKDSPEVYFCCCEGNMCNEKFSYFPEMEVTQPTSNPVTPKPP
# experimentalProtocol: ELISA
# Experimental: The binding of ACVR2A-specific monoclonal antibodies to human ACVR2A, mouse ACVR2A, biotinylated goat anti-human kappa light chain (positive control) and human Fc (negative control) were determined by ELISA.
Measured optical density, listed per entry for reference.

| binder | optical density |
| --- | --- |
| 370_G09 (antibody, V domains shown) VH: EVQLLESGGGLVQPGGSLRLSCAASGFTFSSYGMNWVRQAPGKGLEWVAGINYNGGYKSYADSVKGRFTISRDNSKNTLYLQMNSLRAEDTAVYYCARSANWHDTALDYWGQGTLVTVSS VL: DIQMTQSPSSLSASVGDRVTITCRASQSILSYVNWYQQKPGKAPKLVIYAATSRASGVPSRFSGSGSGTDFTLTISSLQPEDFATYYCQQSYESPLTFGGGTKVEIK | 3.14 OD |
| 368_A07 (antibody, V domains shown) VH: EVQLLESGGGLVQPGGSLRLSCAASGFTFSSYSMNWVRQAPGKGLEWVAGINYNSGYTSYADSVKGRFTISRDNSKNTLYLQMNSLRAEDTAVYYCARSANWHDTHLDYWGQGTLVTVSS VL: DIQMTQSPSSLSASVGDRVTITCRASQSILTYLNWYQQKPGKAPKLVIYATTSRASGVPSRFSGSGSGTDFTLTISSLQPEDFATYYCQQSNELPLTFGGGTKVEIK | 2.31 OD |
| 370_E06 (antibody, V domains shown) VH: EVQLLESGGGLVQPGGSLRLSCAASGFTFSSYGMNWVRQAPGKGLEWVSGINYNSGYKSYADSVKGRFTISRDNSKNTLYLQMNSLRAEDTAVYYCARSANWHDTALDYWGQGTLVTVSS VL: DIQMTQSPSSLSASVGDRVTITCRASQSILSYLNWYQQKPGKAPKLVIYATTSLASGVPSRFSGSGSGTDFTLTISSLQPEDFATYYCQQSYDTPLTFGGGTKVEIK | 3.02 OD |
| 371_G10 (antibody, V domains shown) VH: EVQLLESGGGLVQPGGSLRLSCAASGFTFSSYSMNWVRQAPGKGLEWVSGINYNGGYKSYADSVKGRFTISRDNSKNTLYLQMNSLRAEDTAVYYCARSANWHDTALDYWGQGTLVTVSS VL: DIQMTQSPSSLSASVGDRVTITCRASQSISSYVNWYQQKPGKAPKLLIYAATSRHSGVPSRFSGSGSGTDFTLTISSLQPEDFATYYCQQSDDSPLTFGGGTKVEIK | 1.92 OD |
